Reference source: the supplement of paper PMC10567573

B1: APBB1IP (parent)
chain: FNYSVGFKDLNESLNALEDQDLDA

# Variants of: B1
# Measurement Notes: protein stability index of a GFP-peptide fusion (GPS, HEK-293T) (PSI 1-6); higher = more stable;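 also: lentivirally expressed fusions sorted by FACS into six bins by GFP to DsRed ratio, PSI derived from sequencing read proportions per bin multiplied by bin number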
# Condition Set: c terminus: a fixed tail appended
protein stability index by entry:

Consider the reported protein stability index for these variants:
1) FNYSVGFKDLNESLNALEDIDLDA ... 3.97
2) FNYSVGFKDLNESLNALEYQDLDA ... 3.93
3) FNYSVGFLDLNESLNALEDQDLDA ... 3.17

Dear colleague, I am looking for the recorded protein stability index of the following variant: FNYSVGFKDLNESLIALEDQDLDA
4.01

Now the same for FNYQVGFKDLNESLNALEDQDLDA
5.1

What do we get for FNYHVGFKDLNESLNALEDQDLDA ?
4.79

And the next one, FNYSVGFKDLNEYLNALEDQDLDA ?
3.54

Same for FNYPVGFKDLNESLNALEDQDLDA
3.29

How about this variant: FNYSVGFKDLNESLNALECQDLDA
4.06

Request: FNYSVGFKDLLESLNALEDQDLDA
3.78

Can you check FNYSVGFKDLCESLNALEDQDLDA next?
4.06

What do you get for FNYSVGFKDLNESLNATEDQDLDA ?
5.18

Proceed to FNYSVGFKHLNESLNALEDQDLDA
4.08

Could you do the same for FNYSVGFKDLNESLNALMDQDLDA , please?
3.59

Consider next the variant FNYSVGFKDLNESLNALEQQDLDA in the same way.
3.83

Same read-out for FNYSVGFKDLNESVNALEDQDLDA ?
4.5
